Source: ChEMBL document CHEMBL4270584

system: 3-dehydroquinate dehydratase (Helicobacter pylori (strain ATCC 700392 / 26695) (Campylobacterpylori), UniProt Q48255)
Sequence (Q48255 whole entry): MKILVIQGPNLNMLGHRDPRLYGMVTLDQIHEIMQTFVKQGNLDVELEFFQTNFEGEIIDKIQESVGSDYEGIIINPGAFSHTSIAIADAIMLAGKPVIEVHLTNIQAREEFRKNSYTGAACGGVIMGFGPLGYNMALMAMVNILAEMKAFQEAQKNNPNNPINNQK
assayMethodText: Inhibition of Helicobacter pylori DHQ2
metric: Ki (µM)
A number alone suffices; assume µM.

Request: Given the entry "CC(C)[C@H](NC(=O)CCCn1c(=O)[nH]c2ccccc2c1=O)C(=O)O" , report its measured Ki.
Response: 19

====

system: Bromodomain-containing protein 4 (Homo sapiens, UniProt O60885)
assayMethodText: Inhibition of H4K5/8/12/16-Ac-biotin binding to human BRD4 bromodomain-1 by Alpha screen assay
metric: IC50 (µM)
Give the value in µM but do not write µM after it.

Request: Please tell me: IC50 of "COc1cc(/C=C2\SC(=O)N=C2N)ccc1O" , system Bromodomain-containing protein 4 (Homo sapiens, UniProt O60885)?
Response: 22
